Sourced from the supplement of paper PMC3334620

molecular target: Stb4 (UniProt P50104); test: PBM E-score (8-mer binding enrichment) (E-score (-0.5 to 0.5)); higher = stronger / more preferred TF binding; conditions: protein concentration: 200 nM; construct: GST-DNA-binding domain
Sequence (P50104 whole entry, the tested form may be a part): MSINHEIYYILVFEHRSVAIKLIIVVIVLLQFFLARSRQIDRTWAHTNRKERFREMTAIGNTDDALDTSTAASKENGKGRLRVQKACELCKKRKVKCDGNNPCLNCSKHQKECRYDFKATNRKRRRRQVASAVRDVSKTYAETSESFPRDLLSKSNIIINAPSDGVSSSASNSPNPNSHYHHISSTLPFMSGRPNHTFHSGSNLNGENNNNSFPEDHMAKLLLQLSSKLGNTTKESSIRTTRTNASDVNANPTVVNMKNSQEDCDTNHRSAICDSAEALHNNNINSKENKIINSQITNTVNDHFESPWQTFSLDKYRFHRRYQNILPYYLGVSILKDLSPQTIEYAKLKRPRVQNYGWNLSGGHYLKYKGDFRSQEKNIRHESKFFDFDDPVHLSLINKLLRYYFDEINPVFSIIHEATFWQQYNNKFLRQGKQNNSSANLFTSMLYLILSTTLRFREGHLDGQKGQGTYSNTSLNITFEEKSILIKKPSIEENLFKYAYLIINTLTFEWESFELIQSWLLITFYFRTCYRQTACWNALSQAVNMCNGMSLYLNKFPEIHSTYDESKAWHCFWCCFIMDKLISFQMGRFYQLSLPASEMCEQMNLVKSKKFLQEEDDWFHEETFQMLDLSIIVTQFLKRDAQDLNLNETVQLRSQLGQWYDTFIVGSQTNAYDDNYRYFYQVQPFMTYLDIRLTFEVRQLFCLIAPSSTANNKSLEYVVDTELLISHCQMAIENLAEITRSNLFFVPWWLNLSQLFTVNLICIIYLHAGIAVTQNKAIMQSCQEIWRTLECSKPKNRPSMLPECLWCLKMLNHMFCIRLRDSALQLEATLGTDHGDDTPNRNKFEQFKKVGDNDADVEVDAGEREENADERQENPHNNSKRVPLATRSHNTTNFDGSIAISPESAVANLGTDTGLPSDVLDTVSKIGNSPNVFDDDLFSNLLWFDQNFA
Whole data set: some 33,000 sequences, median “E-score (-0.5 to 0.5)” near -0.056, cut for the highest 2% near 0.38. The full list was thinned out, with the highest values kept by preference.
Parameter threshold = 0.1. Response is true (1) when PBM E-score meets or exceeds it, else false (0).

Form field: PBM E-score at least 0.1? Entry: ATGTTCCG
true (1)

Form field: PBM E-score at least 0.1? Entry: ACAGATCG
false (0)

Form field: PBM E-score at least 0.1? Entry: AACCGATC
true (1)

Form field: PBM E-score at least 0.1? Entry: CCCGGGTA
true (1)

Form field: PBM E-score at least 0.1? Entry: ATGTTCCA
false (0)

Form field: PBM E-score at least 0.1? Entry: CGACTAGA
false (0)

Form field: PBM E-score at least 0.1? Entry: AGATCCGC
true (1)

Form field: PBM E-score at least 0.1? Entry: TACACTGA
false (0)

Form field: PBM E-score at least 0.1? Entry: GTAAGTAC
false (0)

Form field: PBM E-score at least 0.1? Entry: CCGTTCCA
true (1)

Form field: PBM E-score at least 0.1? Entry: AGTGCGAC
false (0)

Form field: PBM E-score at least 0.1? Entry: GCGTCCGA
true (1)

Form field: PBM E-score at least 0.1? Entry: CAGAATAA
false (0)

Form field: PBM E-score at least 0.1? Entry: ATCTTCGG
true (1)

Form field: PBM E-score at least 0.1? Entry: CTCCGATA
true (1)

Form field: PBM E-score at least 0.1? Entry: GTATTATA
false (0)

Form field: PBM E-score at least 0.1? Entry: CGCACCGC
false (0)

Form field: PBM E-score at least 0.1? Entry: ACGGATCA
true (1)

Form field: PBM E-score at least 0.1? Entry: CTAGTCCA
false (0)

Form field: PBM E-score at least 0.1? Entry: CCCGGGTC
true (1)

Form field: PBM E-score at least 0.1? Entry: CGGTAGAG
true (1)

Form field: PBM E-score at least 0.1? Entry: CTGATCCA
false (0)

Form field: PBM E-score at least 0.1? Entry: ATCTTCCC
true (1)

Form field: PBM E-score at least 0.1? Entry: AGCGATAT
false (0)

Form field: PBM E-score at least 0.1? Entry: GCGAAAAC
false (0)

Form field: PBM E-score at least 0.1? Entry: ACGAAACC
false (0)

Form field: PBM E-score at least 0.1? Entry: CCGGATGA
true (1)
